- procedure-details: Bioavailability in dogs
- Assay type: ADME, organism-based, Canis lupus familiaris
- experimental-context: dog, in vivo; read-out: Bioavailabiility

smi	bioavailability, %
O=S(=O)(Nc1ccc(CCNC[C@H](O)c2cccnc2)cc1)c1ccc(I)cc1	51

* * *

- target-desc: Neuropeptide Y receptor type 2 (Rattus norvegicus)
- Sequence (Q9ERC0 whole entry): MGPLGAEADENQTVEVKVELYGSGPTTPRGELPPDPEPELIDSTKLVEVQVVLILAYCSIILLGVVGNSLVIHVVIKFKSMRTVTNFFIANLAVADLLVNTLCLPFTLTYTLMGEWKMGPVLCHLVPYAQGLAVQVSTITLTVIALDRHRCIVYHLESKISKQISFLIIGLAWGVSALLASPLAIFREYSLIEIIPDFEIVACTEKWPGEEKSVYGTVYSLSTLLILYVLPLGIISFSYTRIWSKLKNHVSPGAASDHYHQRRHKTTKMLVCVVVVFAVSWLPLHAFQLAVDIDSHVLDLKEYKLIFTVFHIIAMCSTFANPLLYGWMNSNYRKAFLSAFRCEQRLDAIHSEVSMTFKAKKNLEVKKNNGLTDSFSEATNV
- procedure-details: The compound was tested for the binding affinity against Neuropeptide Y receptor type 2
pIC50: −log10 of the molar value.
quantity-name: pIC50

smi	target-desc	reading
O=C(CN1CCC(n2c(=O)[nH]c3ccccc32)CC1)Nc1ccc2c(c1)-c1ccccc1C2=O	Neuropeptide Y receptor type 2 (Rattus norvegicus)	< 5.30

* * *

- procedure-details: Oral bioavailability in rat
- Assay type: ADME, organism-based
- experimental-context: in vivo

molecule	bioavailability [%]
COc1ccc(N(C(=O)CN2C(=O)C(Cc3n[nH]c4ccccc34)C(=O)N(c3ccccc3)c3ccccc32)C(C)C)cc1 (stereo unspecified)	8
